meta.source: patent US20190202907A1

SYSTEM UNDER TEST: cyno ST2L (cyno)
METHOD: affinity table; method not stated
// reported koff for each item listed
# output: bare number, implied unit s⁻¹

• STLM206 (antibody, from another filing, V domains shown) VH: EVQLLESGGGLVQPGGSLRLSCAASGFTFSIYDMIWVRQAPGKGLEWVSTIRGEGGSTYYADSVKGRFTISRDNSKNTLYLQMNSLRAEDTAVYYCARDPWSTEGSFFVLDYWGQGTLVTVSS VL: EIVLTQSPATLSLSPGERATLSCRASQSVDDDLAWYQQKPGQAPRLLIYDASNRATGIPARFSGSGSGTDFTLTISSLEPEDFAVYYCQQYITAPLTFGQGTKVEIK = 0.000583

(Q) Return reported koff; argument: STLM217 (antibody, from another filing, V domains shown) VH: EVQLLESGGGLVQPGGSLRLSCAASGFTFSVYDMFWVRQAPGKGLEWVSDIKGEGGETSYADSVKGRFTISRDNSKNTLYLQMNSLRAEDTAVYYCARDPWSTEGSFFVLDYWGQGTLVTVSS VL: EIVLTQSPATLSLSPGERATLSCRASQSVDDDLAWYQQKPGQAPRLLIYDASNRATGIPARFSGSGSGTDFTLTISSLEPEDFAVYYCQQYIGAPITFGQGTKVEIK
(A) 0.000138

(Q) Return reported koff; argument: STLM124 (antibody, from another filing, V domains shown) VH: EVQLLESGGGLVQPGGSLRLSCAASGFTFSIYDMIWVRQAPGKGLEWVSTIKGEGGGTYYADSVKGRFTISRDNSKNTLYLQMNSLRAEDTAVYYCARDPWSTEGSFFVLDYWGQGTLVTVSS VL: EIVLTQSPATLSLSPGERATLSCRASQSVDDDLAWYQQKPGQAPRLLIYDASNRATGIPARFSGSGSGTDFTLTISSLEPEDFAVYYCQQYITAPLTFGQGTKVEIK
(A) 0.00257

(Q) Return reported koff; argument: STLM209 (antibody, from another filing, V domains shown) VH: EVQLLESGGGLVQPGGSLRLSCAASGFTFSIYDMIWVRQAPGKGLEWVSTIRGEGGGTSYADSVKGRFTISRDNSKNTLYLQMNSLRAEDTAVYYCARDPWSTEGSFFVLDYWGQGTLVTVSS VL: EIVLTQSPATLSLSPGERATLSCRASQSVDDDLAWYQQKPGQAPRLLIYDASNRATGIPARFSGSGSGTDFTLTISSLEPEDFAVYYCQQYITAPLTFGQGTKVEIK
(A) 0.000311

(Q) Return reported koff; argument: STLM218 (antibody, from another filing, V domains shown) VH: EVQLLESGGGLVQPGGSLRLSCAASGFTFSVDSMFWVRQAPGKGLEWVSSIEGNGGATYYADSVKGRFTISRDNSKNTLYLQMNSLRAEDTAVYYCARDPWSTEGSFFVLDYWGQGTLVTVSS VL: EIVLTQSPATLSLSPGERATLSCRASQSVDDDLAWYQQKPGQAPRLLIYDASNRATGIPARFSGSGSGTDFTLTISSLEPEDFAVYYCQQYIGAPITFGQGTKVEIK
(A) 0.000265
